# Experiment Description: Population pharmacokinetic analysis of CC‐292
# Assay type: in vivo, human
# Measurement Setup: both, human, plasma, oral

- Chem Smiles: "C=CC(=O)Nc1cccc(Nc2nc(Nc3ccc(OCCOC)cc3)ncc2F)c1"
  clearance (mL/min): 2230
